Entry source: the supplement of paper PMC7877785

Assay name: self-splicing fitness, log relative to wild type (ln ratio); higher = more splicing; Tetrahymena group I intron in knt gene, E. coli kanamycin selection, DiMSum; sequences stand for … in CUCUCU…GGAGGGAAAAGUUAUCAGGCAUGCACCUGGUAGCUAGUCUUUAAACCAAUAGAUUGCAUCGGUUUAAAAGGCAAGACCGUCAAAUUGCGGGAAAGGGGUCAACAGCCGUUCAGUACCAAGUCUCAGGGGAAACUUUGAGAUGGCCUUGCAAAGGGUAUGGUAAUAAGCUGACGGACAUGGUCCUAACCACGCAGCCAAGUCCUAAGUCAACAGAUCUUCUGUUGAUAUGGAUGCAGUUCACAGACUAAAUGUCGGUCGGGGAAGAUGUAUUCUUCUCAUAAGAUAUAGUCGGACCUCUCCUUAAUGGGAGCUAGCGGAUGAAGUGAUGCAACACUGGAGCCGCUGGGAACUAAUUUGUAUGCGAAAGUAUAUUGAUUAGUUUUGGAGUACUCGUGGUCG;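 also: selection with 25 µg/mL kanamycin versus none on LB agar overnight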
Test parameters: 30 °C
Outcome label depends on self-splicing fitness (ln) relative to -3: at/above gives Met, below gives Not met.

[in] Quick check: does CUUCAGCAAUAUUACGAGGU have self-splicing fitness (ln) greater than or equal to -3?
[out] Not met

[in] Quick check: does AUUUAGCAAUAUUACGUCAC have self-splicing fitness (ln) greater than or equal to -3?
[out] Not met

[in] Quick check: does AAGUAGCAAUAUUACGUAUC have self-splicing fitness (ln) greater than or equal to -3?
[out] Met

[in] Quick check: does UAAAAGCAAUAUUACGCCCC have self-splicing fitness (ln) greater than or equal to -3?
[out] Not met

[in] Quick check: does UUUAAGCAAUAUUACGGCUG have self-splicing fitness (ln) greater than or equal to -3?
[out] Met

[in] Quick check: does AGUCAGCAAUAUUACGCUGG have self-splicing fitness (ln) greater than or equal to -3?
[out] Not met

[in] Quick check: does UUCCAGCAAUAUUACGUGGC have self-splicing fitness (ln) greater than or equal to -3?
[out] Not met

[in] Quick check: does UAUGAGCAAUAUUACGUCAG have self-splicing fitness (ln) greater than or equal to -3?
[out] Met

====

Assign self-splicing fitness (ln) to each entry below.
Assay name: self-splicing fitness, log relative to wild type (ln ratio); higher = more splicing; Tetrahymena group I intron in knt gene, E. coli kanamycin selection, DiMSum; sequences stand for … in CUCUCU…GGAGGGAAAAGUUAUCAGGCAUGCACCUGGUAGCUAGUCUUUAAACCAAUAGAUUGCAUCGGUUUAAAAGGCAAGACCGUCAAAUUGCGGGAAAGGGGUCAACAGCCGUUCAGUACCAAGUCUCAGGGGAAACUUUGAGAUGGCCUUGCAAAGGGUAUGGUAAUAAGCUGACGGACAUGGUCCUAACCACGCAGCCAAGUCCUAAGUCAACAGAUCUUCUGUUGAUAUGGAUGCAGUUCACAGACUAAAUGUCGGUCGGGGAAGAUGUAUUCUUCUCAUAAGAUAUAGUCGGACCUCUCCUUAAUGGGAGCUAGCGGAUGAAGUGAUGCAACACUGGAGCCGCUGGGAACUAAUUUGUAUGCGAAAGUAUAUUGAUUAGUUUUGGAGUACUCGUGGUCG
Test parameters: 37 °C
// print number alone

[in] So what does the record say about self-splicing fitness (ln) for CAAAAGCAAUAUUACGGGAA ?
[out] -1.13

[in] So what does the record say about self-splicing fitness (ln) for ACUUAGCAAUAUUACGGUUC ?
[out] -3.35

[in] So what does the record say about self-splicing fitness (ln) for GACUAGCAAUAUUACGGUGG ?
[out] -1.27

[in] So what does the record say about self-splicing fitness (ln) for GAUUAGCAAUAUUACGUGAA ?
[out] -1.48

[in] So what does the record say about self-splicing fitness (ln) for UGGAAGCAAUAUUACGCUUA ?
[out] 0.125

[in] So what does the record say about self-splicing fitness (ln) for GUACAGCAAUAUUACGAAUA ?
[out] -1.67

[in] So what does the record say about self-splicing fitness (ln) for CAUAAGCAAUAUUACGGCGA ?
[out] -0.178

[in] So what does the record say about self-splicing fitness (ln) for UCAUAGCAAUAUUACGUAUG ?
[out] -2.09

[in] So what does the record say about self-splicing fitness (ln) for UUAAAGCAAUAUUACGUCGU ?
[out] -0.737

[in] So what does the record say about self-splicing fitness (ln) for CUAAAGCAAUAUUACGUGUG ?
[out] 0.387

[in] So what does the record say about self-splicing fitness (ln) for AAUUAGCAAUAUUACGGCGG ?
[out] -0.193

[in] So what does the record say about self-splicing fitness (ln) for CGUAAGCAAUAUUACGUGUC ?
[out] -3.01

[in] So what does the record say about self-splicing fitness (ln) for CAGGAGCAAUAUUACGUUUU ?
[out] -2.3

[in] So what does the record say about self-splicing fitness (ln) for CAUCAGCAAUAUUACGAAGC ?
[out] -2.2

[in] So what does the record say about self-splicing fitness (ln) for GCUCAGCAAUAUUACGCACC ?
[out] 0.598

[in] So what does the record say about self-splicing fitness (ln) for AAAGAGCAAUAUUACGUUGG ?
[out] -2.4

[in] So what does the record say about self-splicing fitness (ln) for CCCUAGCAAUAUUACGCAUG ?
[out] -2.73

[in] So what does the record say about self-splicing fitness (ln) for AUAUAGCAAUAUUACGAAAU ?
[out] -1.72

[in] So what does the record say about self-splicing fitness (ln) for UGAUAGCAAUAUUACGUACA ?
[out] -0.0617

[in] So what does the record say about self-splicing fitness (ln) for GGCAAGCAAUAUUACGCGCA ?
[out] 0.461

[in] So what does the record say about self-splicing fitness (ln) for AAUGAGCAAUAUUACGAAAG ?
[out] -3.18

[in] So what does the record say about self-splicing fitness (ln) for AGAUAGCAAUAUUACGAAUA ?
[out] -2.16

[in] So what does the record say about self-splicing fitness (ln) for UUCGAGCAAUAUUACGCGUC ?
[out] -2.34

[in] So what does the record say about self-splicing fitness (ln) for AGCGAGCAAUAUUACGGACU ?
[out] 0.232

[in] So what does the record say about self-splicing fitness (ln) for GGUUAGCAAUAUUACGUCGA ?
[out] -0.492

[in] So what does the record say about self-splicing fitness (ln) for UAAGAGCAAUAUUACGUAGC ?
[out] -2.71

[in] So what does the record say about self-splicing fitness (ln) for CUUAAGCAAUAUUACGCGAU ?
[out] -0.837

[in] So what does the record say about self-splicing fitness (ln) for GGGGAGCAAUAUUACGUUUA ?
[out] -2.77

[in] So what does the record say about self-splicing fitness (ln) for AUCUAGCAAUAUUACGGCAG ?
[out] -0.157

[in] So what does the record say about self-splicing fitness (ln) for CUGGAGCAAUAUUACGGGGA ?
[out] -2.39

[in] So what does the record say about self-splicing fitness (ln) for CAUGAGCAAUAUUACGGUAG ?
[out] -0.949

[in] So what does the record say about self-splicing fitness (ln) for UCCAAGCAAUAUUACGAAGC ?
[out] -1.93

[in] So what does the record say about self-splicing fitness (ln) for CAAAAGCAAUAUUACGAACU ?
[out] -1.3

[in] So what does the record say about self-splicing fitness (ln) for CGCUAGCAAUAUUACGACUU ?
[out] -0.983

[in] So what does the record say about self-splicing fitness (ln) for UCUCAGCAAUAUUACGUCGU ?
[out] -1.91

[in] So what does the record say about self-splicing fitness (ln) for UUAUAGCAAUAUUACGGCAG ?
[out] -0.0118

[in] So what does the record say about self-splicing fitness (ln) for AGACAGCAAUAUUACGUUAA ?
[out] -1.27

[in] So what does the record say about self-splicing fitness (ln) for GGCGAGCAAUAUUACGGCGU ?
[out] -1.1

[in] So what does the record say about self-splicing fitness (ln) for GGCUAGCAAUAUUACGCUGA ?
[out] -0.413

[in] So what does the record say about self-splicing fitness (ln) for AUAGAGCAAUAUUACGGGGC ?
[out] -2.51

[in] So what does the record say about self-splicing fitness (ln) for AGUUAGCAAUAUUACGUUGG ?
[out] -2.3

[in] So what does the record say about self-splicing fitness (ln) for AAUAAGCAAUAUUACGGCUC ?
[out] 0.129

[in] So what does the record say about self-splicing fitness (ln) for CGGAAGCAAUAUUACGAGCC ?
[out] -0.454

[in] So what does the record say about self-splicing fitness (ln) for AGGUAGCAAUAUUACGUGCG ?
[out] -0.358

[in] So what does the record say about self-splicing fitness (ln) for AGUUAGCAAUAUUACGGGAU ?
[out] -1.46

[in] So what does the record say about self-splicing fitness (ln) for AACUAGCAAUAUUACGUAUU ?
[out] -0.837

[in] So what does the record say about self-splicing fitness (ln) for CCGUAGCAAUAUUACGUCUG ?
[out] 0.303

[in] So what does the record say about self-splicing fitness (ln) for UUUAAGCAAUAUUACGGACG ?
[out] 0.235

[in] So what does the record say about self-splicing fitness (ln) for AACCAGCAAUAUUACGAUAA ?
[out] -0.457

[in] So what does the record say about self-splicing fitness (ln) for UUAAAGCAAUAUUACGAUAC ?
[out] -0.384

[in] So what does the record say about self-splicing fitness (ln) for GACUAGCAAUAUUACGAUAA ?
[out] -0.492

[in] So what does the record say about self-splicing fitness (ln) for ACCCAGCAAUAUUACGAUUA ?
[out] -1.41

[in] So what does the record say about self-splicing fitness (ln) for AACCAGCAAUAUUACGGACA ?
[out] -0.0476

[in] So what does the record say about self-splicing fitness (ln) for CACCAGCAAUAUUACGACGG ?
[out] 0.0217

[in] So what does the record say about self-splicing fitness (ln) for CGAAAGCAAUAUUACGGUCA ?
[out] -0.586

[in] So what does the record say about self-splicing fitness (ln) for UGGGAGCAAUAUUACGACGA ?
[out] -0.296

[in] So what does the record say about self-splicing fitness (ln) for CCAUAGCAAUAUUACGAGCA ?
[out] -2.11

[in] So what does the record say about self-splicing fitness (ln) for AGCGAGCAAUAUUACGUCCU ?
[out] -0.661

[in] So what does the record say about self-splicing fitness (ln) for CAGUAGCAAUAUUACGGAUU ?
[out] -3.21

[in] So what does the record say about self-splicing fitness (ln) for CGCUAGCAAUAUUACGAUAC ?
[out] -2.31

[in] So what does the record say about self-splicing fitness (ln) for GCCGAGCAAUAUUACGUGCC ?
[out] -2.52

[in] So what does the record say about self-splicing fitness (ln) for CGAUAGCAAUAUUACGACCU ?
[out] 0.288

[in] So what does the record say about self-splicing fitness (ln) for AGCUAGCAAUAUUACGAUCA ?
[out] -0.168

[in] So what does the record say about self-splicing fitness (ln) for AUAAAGCAAUAUUACGAGUG ?
[out] -1.16

[in] So what does the record say about self-splicing fitness (ln) for UAGAAGCAAUAUUACGACCG ?
[out] -0.138

[in] So what does the record say about self-splicing fitness (ln) for UUAAAGCAAUAUUACGCUAG ?
[out] 0.141

[in] So what does the record say about self-splicing fitness (ln) for UCAAAGCAAUAUUACGGACG ?
[out] -0.282
